# AC50 values compiled below
tested on: HTT mRNA; experiment: RT-qPCR splicing assay monitoring HTT canonical (CJ) and alternative (AJ) junction mRNA in A673 or K562 cells; assay type: cell-based; conditions: increase in AJ mRNA, 24 hours compound treatment, top dose 10 uM, read-out: HTT AJ AC50

{"Compound": "COc1nc(-c2ccc(OC3CC(C)(C)NC(C)(C)C3)nn2)ccc1-n1cccn1 [Compound 271]", "Value": "1 to 10 µM"}
{"Compound": "COc1cc(-c2ccc(N(C)[C@@H]3C[C@H]4CC[C@@H](C3)N4)nn2)ccc1-c1cn[nH]c1 [Compound 208]", "Value": "0.1 to 1 µM"}

According to the records, this compound CN(c1ccc(-c2ccc(-c3cn[nH]c3)c(C(F)(F)F)n2)nn1)[C@@H]1C[C@H]2CC[C@@H](C1)N2 [Compound 236] displays AC50 of > 10 µM

* * *

# AC50 values compiled below
tested on: HTT mRNA; assay: RT-qPCR splicing assay monitoring HTT canonical (CJ) and alternative (AJ) junction mRNA in A673 or K562 cells; assay type: cell-based; conditions: increase in AJ mRNA, 24 hours compound treatment, top dose 10 uM, read-out: HTT AJ AC50

As a guide, the following entries are already answered.
{"Molecule": "COc1nc(-c2ccc(N(C)[C@@H]3C[C@H]4CC[C@@H](C3)N4)nn2)ncc1-c1cn[nH]c1 [Compound 207]", "Assay target": "HTT mRNA", "Value": "1000 to 10000 nM"}
{"Molecule": "COc1nc(-c2ccc(N(C)[C@@H]3C[C@H]4CC[C@@H](C3)N4)nn2)ccc1-c1cn[nH]c1 [Compound 133]", "Assay target": "HTT mRNA", "Value": "100 to 1000 nM"}
{"Molecule": "COc1nc(-c2ccc(NC3CCNCC3)nn2)ccc1-c1cnn(C)n1 [Compound 270]", "Assay target": "HTT mRNA", "Value": "1000 to 10000 nM"}

According to the records, this molecule COc1nc(-c2ccc(N(C)[C@@H]3C[C@H]4CC[C@@H](C3)N4)nn2)ccc1-n1cccn1 [Compound 134] displays AC50 of 100 to 1000 nM

According to the records, this molecule COc1nc(-c2ccc(OC3CC(C)(C)NC(C)(C)C3)nn2)ccc1-c1cnn(C)n1 [Compound 258] displays AC50 of 1000 to 10000 nM

According to the records, this molecule COc1nc(-c2ccc(OC3CC(C)(C)NC(C)(C)C3)nn2)ccc1-c1cnn(C)c1 [Compound 245] displays AC50 of 100 to 1000 nM

According to the records, this molecule COc1nc(-c2ccc(N(C)[C@@H]3C[C@H]4CC[C@@H](C3)N4)nn2)ccc1-c1cnn(C)c1 [Compound 287] displays AC50 of 100 to 1000 nM

According to the records, this molecule COc1nc(-c2ccc(N(C)[C@@H]3C[C@H]4CC[C@@H](C3)N4)nn2)cc(F)c1-c1cn[nH]c1 [Compound 268] displays AC50 of < 100 nM

* * *

# AC50 values compiled below
system: HTT mRNA; test: RT-qPCR splicing assay monitoring HTT canonical (CJ) and alternative (AJ) junction mRNA in A673 or K562 cells; format: cell-based; details: decrease in CJ mRNA, 24 hours compound treatment, top dose 10 uM, read-out: HTT CJ AC50
Counter-ions that a name gives are not always drawn.

As a guide, the following entries are already answered.
{"Compound": "COc1nc(-c2ccc(N(C)[C@@H]3C[C@H]4CC[C@@H](C3)N4)nn2)ncc1-c1cn[nH]c1", "AC50": "1000 to 10000 nM"}
{"Compound": "COc1nc(-c2ccc(N(C)[C@@H]3C[C@H]4CC[C@@H](C3)N4)nn2)cnc1-c1cn[nH]c1 [Compound 260, hydrochloride]", "AC50": "100 to 1000 nM"}
{"Compound": "COc1nc(-c2ccc(NC3CCNCC3)nn2)ccc1-c1cnn(C)c1", "AC50": "1000 to 10000 nM"}

According to the records, this compound COc1nc(-c2ccc(N(C)[C@@H]3C[C@H]4CC[C@@H](C3)N4)nn2)ccc1-c1cnn(C)c1 displays AC50 of < 100 nM

* * *

# IC50 values compiled below
tested on: HTT; assay: Gene panel canonical junction RT-qPCR assay: HTT; assay type: cell-based; details: read-out: HTT (IC50, decrease in CJ mRNA levels)

{"Molecule": "COc1nc(-c2ccc(N(C)C3CC(C)(C)NC(C)(C)C3)nn2)ccc1-c1cnn(C)n1 [Compound 259]", "Assay target": "HTT", "IC50": "100 to 1000 nM"}
{"Molecule": "COc1nc(-c2ccc(N(C)C3C[C@H]4CC[C@@H](C3)N4)nn2)ccc1-c1cnn(C)n1 (stereo partly shown) [Compound 269]", "Assay target": "HTT", "IC50": "< 100 nM"}
{"Molecule": "CN(c1ccc(-c2ccc(-c3cn[nH]c3)cn2)nn1)[C@@H]1C[C@H]2CC[C@@H](C1)N2 [Compound 217]", "Assay target": "HTT", "IC50": "100 to 1000 nM"}

Here's the next entry for you.
According to the records, this molecule COc1nc(-c2ccc(NC3CCNCC3)nn2)ccc1-c1cnn(C)c1 [Compound 257] displays IC50 of 1000 to 10000 nM

* * *

system: HTT; test: Gene panel canonical junction RT-qPCR assay: HTT; type: cell-based; settings: read-out: HTT (IC50, decrease in CJ mRNA levels)
Observation type: IC50

As a guide, the following entries are already answered.
{"Structure notation": "COc1nc(-c2ccc(N(C)[C@@H]3C[C@H]4CC[C@@H](C3)N4)nn2)ccc1-c1cn[nH]c1", "IC50": "< 100 nM"}
{"Structure notation": "CN(c1ccc(-c2ccc(-n3cccn3)c(=O)[nH]2)nn1)[C@@H]1C[C@H]2CC[C@@H](C1)N2", "IC50": "100 to 1000 nM"}
{"Structure notation": "CN(c1ccc(-c2ccc(-c3cn[nH]c3)c(C#N)n2)nn1)[C@@H]1C[C@H]2CC[C@@H](C1)N2", "IC50": "< 100 nM"}
{"Structure notation": "CN(c1ccc(-c2ccc(-c3cn[nH]c3)c(OC3CC3)n2)nn1)[C@@H]1C[C@H]2CC[C@@H](C1)N2", "IC50": "< 100 nM"}
{"Structure notation": "CCOc1nc(-c2ccc(N(C)[C@@H]3C[C@H]4CC[C@@H](C3)N4)nn2)ccc1-c1cn[nH]c1", "IC50": "< 100 nM"}
{"Structure notation": "CN(c1ccc(-c2ccc(-c3cn[nH]c3)c(Cl)n2)nn1)[C@@H]1C[C@H]2CC[C@@H](C1)N2", "IC50": "< 100 nM"}

Here's the next entry for you.
According to the records, this compound COc1cc(-c2ccc(N(C)[C@@H]3C[C@H]4CC[C@@H](C3)N4)nn2)ccc1-c1cn[nH]c1 displays IC50 of 100 to 1000 nM

* * *

# IC50 values compiled below
tested on: HTT; experiment: Gene panel canonical junction RT-qPCR assay: HTT; assay type: cell-based; details: read-out: HTT (IC50, decrease in CJ mRNA levels)
Where a name gives a salt, the structure may show the parent alone.

As a guide, the following entries are already answered.
{"Molecule": "COc1nc(-c2ccc(N(C)[C@@H]3C[C@H]4CC[C@@H](C3)N4)nn2)cnc1-c1cn[nH]c1 [Compound 260, hydrochloride]", "Assay target": "HTT", "IC50": "< 100 nM"}
{"Molecule": "COc1nc(-c2ccc(O[C@@H]3C[C@H]4CC[C@@H](C3)N4)nn2)ccc1-c1cn(C)nn1 [Compound 290]", "Assay target": "HTT", "IC50": "100 to 1000 nM"}
{"Molecule": "COc1nc(-c2ccc(OC3CC(C)(C)NC(C)(C)C3)nn2)ccc1-c1cnn(C)n1 [Compound 258]", "Assay target": "HTT", "IC50": "100 to 1000 nM"}
{"Molecule": "COc1nc(-c2ccc(N(C)[C@@H]3C[C@H]4CC[C@@H](C3)N4)nn2)ccc1-n1cccn1 [Compound 134]", "Assay target": "HTT", "IC50": "100 to 1000 nM"}
{"Molecule": "COc1nc(-c2ccc(N(C)C3CC(C)(C)NC(C)(C)C3)nn2)ccc1-c1cn[nH]c1 [Compound 246]", "Assay target": "HTT", "IC50": "< 100 nM"}
{"Molecule": "COc1nc(-c2ccc(OC3CC(C)(C)NC(C)(C)C3)nn2)ccc1-c1cnn(C)c1 [Compound 245]", "Assay target": "HTT", "IC50": "< 100 nM"}
{"Molecule": "COc1nc(-c2ccc(N(C)[C@@H]3C[C@H]4CC[C@@H](C3)N4)nn2)ccc1-c1cnn(C)c1 [Compound 287]", "Assay target": "HTT", "IC50": "< 100 nM"}
{"Molecule": "COc1nc(-c2ccc(N(C)[C@H]3CCN[C@@H](C)C3)nn2)ccc1-n1cccn1 [Compound 135]", "Assay target": "HTT", "IC50": "> 10000 nM"}

Here's the next entry for you.
According to the records, this molecule COc1nc(-c2ccc(N(C)[C@@H]3CCN[C@H](C)C3)nn2)ccc1-c1cn[nH]c1 [Compound 136] displays IC50 of 1000 to 10000 nM

Origin of values: patent US20230365526A1
